Listing of entries alongside the reported IC50.
test_system: T current in rat DRG (Rattus norvegicus)
Construct: native ion channels in dissociated rat dorsal root ganglion (DRG) neurons
Sequence (Q9EQ60 whole entry): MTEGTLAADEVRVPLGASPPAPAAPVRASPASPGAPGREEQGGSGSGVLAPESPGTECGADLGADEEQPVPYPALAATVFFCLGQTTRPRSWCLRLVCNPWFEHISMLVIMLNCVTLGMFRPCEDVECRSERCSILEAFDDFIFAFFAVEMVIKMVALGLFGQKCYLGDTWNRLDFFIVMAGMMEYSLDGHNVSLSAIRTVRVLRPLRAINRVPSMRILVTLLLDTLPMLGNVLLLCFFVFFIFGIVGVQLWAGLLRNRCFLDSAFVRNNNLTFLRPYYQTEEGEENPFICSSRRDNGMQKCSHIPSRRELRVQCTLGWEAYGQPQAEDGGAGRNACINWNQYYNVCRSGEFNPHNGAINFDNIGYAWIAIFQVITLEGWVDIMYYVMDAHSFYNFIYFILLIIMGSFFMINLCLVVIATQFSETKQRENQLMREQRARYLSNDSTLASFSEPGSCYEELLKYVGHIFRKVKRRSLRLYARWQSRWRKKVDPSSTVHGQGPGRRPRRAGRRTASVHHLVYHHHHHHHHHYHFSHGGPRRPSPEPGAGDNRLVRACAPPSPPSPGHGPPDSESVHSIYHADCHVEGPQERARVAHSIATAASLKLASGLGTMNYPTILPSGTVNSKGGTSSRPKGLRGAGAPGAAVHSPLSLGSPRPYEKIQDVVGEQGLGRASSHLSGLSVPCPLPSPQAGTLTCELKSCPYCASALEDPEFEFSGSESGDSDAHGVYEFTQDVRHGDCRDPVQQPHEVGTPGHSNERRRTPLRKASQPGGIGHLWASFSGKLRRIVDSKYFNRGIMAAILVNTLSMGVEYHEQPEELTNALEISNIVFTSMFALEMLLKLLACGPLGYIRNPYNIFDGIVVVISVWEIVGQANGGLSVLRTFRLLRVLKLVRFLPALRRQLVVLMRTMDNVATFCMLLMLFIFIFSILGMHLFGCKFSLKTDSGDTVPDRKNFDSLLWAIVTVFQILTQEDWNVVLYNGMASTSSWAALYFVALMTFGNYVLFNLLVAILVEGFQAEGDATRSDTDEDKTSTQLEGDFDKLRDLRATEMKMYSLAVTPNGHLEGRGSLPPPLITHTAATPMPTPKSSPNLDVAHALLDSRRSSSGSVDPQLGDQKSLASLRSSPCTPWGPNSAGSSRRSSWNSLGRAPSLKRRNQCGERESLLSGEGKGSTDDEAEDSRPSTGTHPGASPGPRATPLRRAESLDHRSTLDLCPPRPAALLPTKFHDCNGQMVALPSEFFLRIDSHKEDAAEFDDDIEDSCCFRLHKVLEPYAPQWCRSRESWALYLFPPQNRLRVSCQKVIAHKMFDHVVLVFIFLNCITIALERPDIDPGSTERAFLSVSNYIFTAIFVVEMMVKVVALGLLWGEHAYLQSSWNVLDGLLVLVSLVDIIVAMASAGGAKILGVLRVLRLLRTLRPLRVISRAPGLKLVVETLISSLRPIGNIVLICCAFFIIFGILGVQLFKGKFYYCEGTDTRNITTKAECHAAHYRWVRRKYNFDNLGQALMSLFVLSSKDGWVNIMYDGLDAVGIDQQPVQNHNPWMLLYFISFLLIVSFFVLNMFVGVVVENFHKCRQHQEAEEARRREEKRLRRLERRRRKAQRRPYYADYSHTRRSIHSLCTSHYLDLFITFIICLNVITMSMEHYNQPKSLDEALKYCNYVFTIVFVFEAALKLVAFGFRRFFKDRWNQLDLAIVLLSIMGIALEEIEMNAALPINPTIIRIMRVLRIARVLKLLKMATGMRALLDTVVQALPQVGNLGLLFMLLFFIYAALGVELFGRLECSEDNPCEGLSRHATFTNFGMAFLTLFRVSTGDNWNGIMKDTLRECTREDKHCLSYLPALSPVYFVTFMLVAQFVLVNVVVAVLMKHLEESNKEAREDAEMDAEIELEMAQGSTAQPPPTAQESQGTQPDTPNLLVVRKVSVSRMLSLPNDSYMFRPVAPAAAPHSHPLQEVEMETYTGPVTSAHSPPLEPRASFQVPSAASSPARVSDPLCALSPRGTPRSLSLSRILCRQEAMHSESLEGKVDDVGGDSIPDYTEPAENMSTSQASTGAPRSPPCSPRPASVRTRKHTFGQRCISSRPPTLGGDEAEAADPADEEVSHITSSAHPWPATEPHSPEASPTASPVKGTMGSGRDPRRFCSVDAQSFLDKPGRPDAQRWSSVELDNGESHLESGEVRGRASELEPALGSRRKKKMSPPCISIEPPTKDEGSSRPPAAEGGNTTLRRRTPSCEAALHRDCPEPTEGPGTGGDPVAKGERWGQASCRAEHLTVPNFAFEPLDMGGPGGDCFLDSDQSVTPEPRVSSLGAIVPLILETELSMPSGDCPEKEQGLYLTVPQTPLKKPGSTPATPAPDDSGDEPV
protocol_notes: Inhibition of T current in dissociated rat DRG neurons
condition_summary: read-out: Inhibition of Currents in rat DRG: T IC50
// unit must come after the numeric part

Known results for compounds:
CC(C)(C)NC(=O)CN1CCC2(CC1)CC2C(=O)Nc1cc(C(F)(F)F)cc(C(F)(F)F)c1 (stereo not shown)
150 nM
CC(C)(C)NC(=O)CN1CCC(CNC(=O)c2cc(F)cc(Cl)c2)CC1 [AFA-258, reference compound]
200 nM
CC(C)(C)NC(=O)CN1CCC2(CC1)CC2NC(=O)c1cc(F)cc(Cl)c1 (stereo not shown)
190 nM

Query :: Value lookup for IC50; key = CC(C)(C)NC(=O)CN1CCC2(CC1)CC2NC(=O)c1cc(F)cc(C(F)(F)F)c1 (stereo not shown)
Result :: 600 nM
